Value source: PubChem BioAssay

assay info: growth suppression of PTEN-deleted HCT116, pilot screen, cell-based, HCT116 clonal line, CellTiter-Glo (AID 824);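 also: 0% = 20 µM Hyamine control and 100% = vehicle cell control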
condition: 60 h, at 10 µM
Records with an inconclusive call do not appear. Calls of active or inactive are those of the source.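 The calls were made as follows: active = viability at or below 27.92% in each of two runs, the all-compound median minus 4 SD; inconclusive = no clear call, values can overlap the other calls; inactive = the rest.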
Classes used: true (1) for active, false (0) for inactive

* COc1ccc(NC(=O)CSc2nnc(Cn3c(=O)sc4ccccc43)n2C)c(OC)c1 | false (0)
* CCOc1ccc(N(CC(=O)NCCSc2ccccn2)S(C)(=O)=O)cc1 | false (0)
* Cc1c(C(=O)NCc2cccnc2)sc2nc(-c3ccc(F)cc3)cn12 | false (0)
* CCC(Sc1ccc2nnc(-c3cccnc3)n2n1)C(=O)O (configuration not stated) | false (0)
* Cc1c(C(=O)NCC2CCCO2)oc2ccc(S(=O)(=O)N3CC(C)CC(C)C3)cc12 (configuration not stated) | false (0)
* O=C(C1CCN(S(=O)(=O)c2cccc3cccnc23)CC1)N1CCCC1 | false (0)
* Clc1ccc(C2CC(c3cccs3)n3ncnc3N2)c(Cl)c1 (configuration not stated) | false (0)
* O=C(c1cc(F)c(F)cc1Cl)N1CCCCC1 | false (0)
* COC(=O)c1ccccc1NC(=O)C1CCCN(c2nnc(-n3cccc3)s2)C1 (configuration not stated) | false (0)
* Cn1c(=O)[nH]c(=O)c2c1nc(SCC(=O)Nc1ccccc1)n2Cc1ccccc1 | false (0)
* Oc1c(CN2CCc3ccccc3C2)cc(Cl)c2cccnc12 | true (1)
* CC1=C(C(N)=O)C(c2ccccn2)n2nc(SCc3ccccc3Cl)nc2N1 (configuration not stated) | false (0)
* O=C(CCCCCN1C(=O)C2C3C=CC(C3)C2C1=O)Nc1nccs1 (configuration not stated) | false (0)
* CCC(C)(C(=O)NC1CCCC1)N(C(=O)CNC(C)=O)c1ccccc1 (configuration not stated) | false (0)
* COC(=O)c1[nH]c2cc(OC)ccc2c1NC(=O)c1ccc2c(c1)OCO2 | false (0)
* Cn1c(SCC(=O)Nc2cccc(F)c2)nnc1-c1cccnc1 | false (0)
* O=C(CSc1nc(-c2ccncc2)nn1CC(=O)N1CCCCC1)NC1CCCC1 | false (0)
* O=C(NCC1CCCO1)C1CCCCN1S(=O)(=O)c1ccc(F)cc1 (configuration not stated) | false (0)
* N#C/C(=C(/O)CN1C(=O)c2ccccc2C1=O)c1nc2ccccc2[nH]1 | false (0)
* COc1ccccc1-c1nc2n(n1)C(c1ccccc1Cl)C(C(N)=O)=C(C)N2 (configuration not stated) | false (0)
* CCOc1ccc(-c2noc(CCC(=O)O)n2)cc1 | false (0)
* Cc1ncc(CO)c2cc(S(=O)(=O)c3ccc(F)cc3)c(=O)oc12 | false (0)
